Test system: Plasmodium falciparum
Experiment: Antiplasmodial activity against Plasmodium falciparum Dd2-B2
Type: functional, organism-based
quantity.measured: pIC50
In simple prose, pIC50 is minus the logarithm base ten of a concentration in moles per litre.

// sample `COc1cc(NC(=O)Cn2ccc3cc(F)c(-c4cnn(C)c4)cc32)cc(OC)c1OC` , its pIC50 was 7.76

* * *

Assay: Metabolic stability in mouse liver microsome assessed as intrinsic clearance
Format: ADME
Settings: microsomes
quantity.measured: intrinsic clearance (CLint) (µL/min/mg)
Field: numeric (µL/min/mg). Do not append units.

| chemical.structure | intrinsic clearance (CLint), µL/min/mg |
| --- | --- |
| COc1cc(NC(=O)Cn2cc(Cl)c3cc(F)c(-c4cnn(C)c4)cc32)cc(OC)c1OC | 6.8 |
| COc1cc(NC(=O)Cn2ccc3ccc(-c4nnc(C)o4)cc32)cc(OC)c1OC | 69 |
| Cn1cc(-c2ccc3c(Cl)cn(CC(=O)Nc4ccccc4Cl)c3c2)cn1 | 177 |

intrinsic clearance (CLint) measured on `COc1cc(NC(=O)Cn2cc(Cl)c3cc(F)c(-c4cn(C)nc4C)cc32)cc(OC)c1OC` = 73

Record `COc1cc(NC(=O)Cn2cc(Cl)c3ccc(-c4cnn(C)c4)cc32)cc(OC)c1OC` . Reported intrinsic clearance (CLint): 53
